experimental target: DV2 sE(1–395), postfusion trimer (dengue virus type 2, UniProt P12823)
test protocol: FP
Ends that are not written are not given here. * marks the point of attachment. FITC = O=C1OC2(c3ccc(O)cc3Oc3cc(O)ccc32)c2ccc(NC(=S)*)cc21; βAla = NCCC(=O)O
quantity measured: Kd (nM)
Enter your answer as a number in nM; do not include the unit.

| binder | test result |
| --- | --- |
| {FITC-βAla}-AWDFGSLGGVFTSIGKALHQVF [FITC-conjugated stem peptide DV2^419–440] | 250 |

Attention now shifts to the item below.
Fill blank: measured Kd of the binder {FITC-βAla}-AWDFGSLGGVFTSIGKALHQVFGAIYGAA [FITC-conjugated stem peptide DV2^419–447] is ____. 125
